Protocol Text: Pharmacokinetic study after oral administration
Assay type: in vivo, SD rats
Condition Details: male, SD, rat, plasma, po, 50 mg/kg
Method: Nine male SD rats were randomly divided into three groups (n = 3). […] Moreover, 500 μL of blood was taken before administration, and 300 μL of blood was taken from the heart at 0.25, 0.5, 1, 2, 4, 6, 9, 12, and 24 h after administration. The plasma samples were centrifuged at 3000 r/min for 10 min. […] The extraction residue was reconstituted in 100 μL of mobile phase and determined by HPLC. […] Pharmacokinetic parameters were calculated using PK SOLVER for the noncompartmental model.
Property Name: half-life (h)
Answers are plain numbers, in h.

**Q:** // lookup half-life for COc1cc(/C=C/C(=O)CC(=O)/C=C/c2ccc(O)c(OC)c2)ccc1O
**A:** 3.27

----------
Protocol Text: Pharmacokinetic study after oral administration
Format: in vivo, SD rats
Condition Details: male, SD, rat, plasma, po, 50 mg/kg
Property Name: MRT
# do not omit the unit; it follows the number

**Q:** // lookup MRT for COc1cc(/C=C/C(=O)CC(=O)/C=C/c2ccc(O)c(OC)c2)ccc1O [CUR, Curcumin]
**A:** 4.71 h

All values here come from paper PMC10189451.
